# targetOrTestSystem: βCat-ECad (E-Cadherin-βCatenin interaction) (Homo sapiens)
# assayRemarks: ELISA based protein-protein interaction assay, βCat-ECad
# settings: Example 1
pIC50: −log10 of the molar value.
measure: pIC50

>>> measvalue("COC(=O)c1ccc(NC(=O)c2ccc(C(=O)Nc3ccc(C(=O)OC)cc3Cl)nc2)c(Cl)c1 [TGC0011605]")
4.68
>>> measvalue("N#Cc1ccc(NC(=O)c2ccc(C(=O)Nc3ccc(C#N)cc3)cc2)cc1 [TGC0012303]")
"< 5.00"

Now for another entry.
[ask] Reported pIC50, molecule COC(=O)c1ccc(NC(=O)c2ccc(C(=O)Nc3ccc(C(=O)OC)cc3)nc2)cc1 [TGC0011288] : ____
[reply] < 5.00

* * *

We begin with a simple list: items and their reported IC50.
# targetOrTestSystem: βCat-BCL9 (beta-Catenin/BCL9-BCL9L interaction) (Homo sapiens)
# assayRemarks: ELISA based protein-protein interaction assay, βCat-BCL9
# settings: Example 1

Some entries whose results are on file:
>>> measvalue("O=C(NCCc1ccccc1OC(F)(F)F)c1ccc(C(=O)NCCc2ccccc2OC(F)(F)F)nc1")
"> 100 µM"
>>> measvalue("CCCCc1ccc(NC(=O)c2ccc(C(=O)Nc3ccc(CCCC)cc3)nc2)cc1")
"> 50 µM"
>>> measvalue("COc1ccc(CCNC(=O)c2ccc(C(=O)NCCc3ccc(OC)c(OC)c3)nc2)cc1OC")
"> 50 µM"
>>> measvalue("O=C(Nc1ccc(-c2cnc(-c3ccc(NC(=O)c4ccco4)cc3)nc2)cc1)c1ccco1")
"> 10 µM"
>>> measvalue("CC(CCc1ccccc1)NC(=O)c1ccc(C(=O)NC(C)CCc2ccccc2)nc1 (centres unmarked)")
"> 10 µM"
>>> measvalue("O=C(Nc1ccc2c(c1)OCO2)c1ccc(C(=O)Nc2ccc3c(c2)OCO3)nc1")
"> 50 µM"

[ask] Reported IC50, molecule `COc1ccc(CCNC(=O)c2ccc(-c3ccc(C(=O)NCCc4ccc(OC)c(OC)c4)cn3)nc2)cc1OC` : ____
[reply] 38 µM

[ask] Same read-out for `COc1ccc(CNC(=O)c2ccc(C(=O)NCc3ccc(OC)cc3)nc2)cc1` ?
[reply] > 25 µM

* * *

# targetOrTestSystem: βCat-TCF4 (Tcf-4-βCatenin interaction) (Homo sapiens, UniProt P35222)
# Sequence (P35222 141-664 limits assumed): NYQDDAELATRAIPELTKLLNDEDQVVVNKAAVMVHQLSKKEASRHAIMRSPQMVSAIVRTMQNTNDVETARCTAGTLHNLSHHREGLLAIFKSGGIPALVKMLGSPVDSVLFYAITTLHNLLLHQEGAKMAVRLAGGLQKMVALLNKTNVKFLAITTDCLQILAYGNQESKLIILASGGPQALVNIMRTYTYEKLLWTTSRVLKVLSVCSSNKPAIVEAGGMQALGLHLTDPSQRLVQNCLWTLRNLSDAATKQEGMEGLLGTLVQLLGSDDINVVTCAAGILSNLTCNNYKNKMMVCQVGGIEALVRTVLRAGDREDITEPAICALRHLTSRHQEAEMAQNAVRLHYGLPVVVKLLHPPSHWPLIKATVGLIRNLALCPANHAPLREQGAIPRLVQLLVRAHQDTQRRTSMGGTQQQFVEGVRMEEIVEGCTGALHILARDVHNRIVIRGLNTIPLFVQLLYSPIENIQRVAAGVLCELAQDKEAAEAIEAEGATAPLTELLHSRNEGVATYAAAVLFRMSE
# assayRemarks: ELISA based protein-protein interaction assay, βCat-TCF4
# Assay type: binding
# settings: Example 1
IC50 listing for selected compounds.

Answered cases to consult:
>>> measvalue("CC(=O)c1ccc(NC(=O)c2ccc(C(=O)Nc3ccc(C(C)=O)cc3)nc2)cc1")
"> 10 µM"
>>> measvalue("Cc1nnc(NC(=O)c2ccc(C(=O)Nc3nnc(C)s3)nc2)s1")
"119 µM"
>>> measvalue("COc1ccc(CCNC(=O)c2ccc(C(=O)NCCc3ccc(OC)c(OC)c3)nc2)cc1OC")
"> 50 µM"
>>> measvalue("COc1cccc(NC(=O)c2ccc(C(=O)Nc3cccc(OC)c3)nc2)c1")
"23 µM"

[ask] Find the recorded IC50 belonging to `O=C(Nc1cccnc1)c1ccc(C(=O)Nc2cccnc2)nc1` and report it.
[reply] > 100 µM

[ask] One more compound: `N#Cc1ccc(NC(=O)c2ccc(C(=O)Nc3ccc(C#N)cc3)cc2)cc1`
[reply] > 10 µM

[ask] Entry to check: `COC(=O)c1ccc(NC(=O)c2ccc(C(=O)Nc3ccc(C(=O)OC)cc3)nc2)cc1`
[reply] > 10 µM

[ask] Same thing, different compound: `COc1cccc(C(=O)Nc2ccc(-c3cnc(-c4ccc(NC(=O)c5cccc(OC)c5)cc4)nc3)cc2)c1`
[reply] > 50 µM

* * *

# targetOrTestSystem: βCat-ECad (E-Cadherin-βCatenin interaction) (Homo sapiens, UniProt P35222)
# assayRemarks: ELISA based protein-protein interaction assay, βCat-ECad
# settings: Example 1
Catalogue of IC50 values

[ask] Looking for the measured IC50 of `COc1cccc(NC(=O)c2ccc(C(=O)Nc3cccc(OC)c3)nc2)c1` , can you help?
[reply] 21 µM

[ask] Here is the next molecule: `O=C(NCc1ccc2c(c1)OCO2)c1ccc(C(=O)NCc2ccc3c(c2)OCO3)nc1`
[reply] > 50 µM

* * *

# targetOrTestSystem: βCat-BCL9 (beta-Catenin/BCL9-BCL9L interaction) (Homo sapiens)
# assayRemarks: ELISA based protein-protein interaction assay, βCat-BCL9
# settings: Example 1
pIC50: −log10 of the molar value.
Each item that follows carries a reported pIC50.

>>> measvalue("CC(C)(C)C(=O)Nc1ccc(C(=O)Nc2ccc(-c3cnc(-c4ccc(NC(=O)c5ccc(NC(=O)C(C)(C)C)cc5)cc4)nc3)cc2)cc1 [TGC0011534]")
"< 4.00"

[ask] What pIC50 value was documented for this compound, O=C(NCCC1=CCCCC1)c1ccc(C(=O)NCCC2=CCCCC2)nc1 [TGC0011435] ?
[reply] < 4.30

[ask] Try this compound next: O=C(COc1ccc(Br)cc1)Nc1ccc(-c2cnc(-c3ccc(NC(=O)COc4ccc(Br)cc4)cc3)nc2)cc1 [TGC0011565]
[reply] < 4.00

[ask] Now try Cc1cc(NC(=O)c2ccc(C(=O)Nc3cc(C)on3)nc2)no1 [TG00011289] .
[reply] < 4.30

* * *

# targetOrTestSystem: βCat-BCL9 (beta-Catenin/BCL9-BCL9L interaction) (Homo sapiens)
# Sequence (P35222 1-781): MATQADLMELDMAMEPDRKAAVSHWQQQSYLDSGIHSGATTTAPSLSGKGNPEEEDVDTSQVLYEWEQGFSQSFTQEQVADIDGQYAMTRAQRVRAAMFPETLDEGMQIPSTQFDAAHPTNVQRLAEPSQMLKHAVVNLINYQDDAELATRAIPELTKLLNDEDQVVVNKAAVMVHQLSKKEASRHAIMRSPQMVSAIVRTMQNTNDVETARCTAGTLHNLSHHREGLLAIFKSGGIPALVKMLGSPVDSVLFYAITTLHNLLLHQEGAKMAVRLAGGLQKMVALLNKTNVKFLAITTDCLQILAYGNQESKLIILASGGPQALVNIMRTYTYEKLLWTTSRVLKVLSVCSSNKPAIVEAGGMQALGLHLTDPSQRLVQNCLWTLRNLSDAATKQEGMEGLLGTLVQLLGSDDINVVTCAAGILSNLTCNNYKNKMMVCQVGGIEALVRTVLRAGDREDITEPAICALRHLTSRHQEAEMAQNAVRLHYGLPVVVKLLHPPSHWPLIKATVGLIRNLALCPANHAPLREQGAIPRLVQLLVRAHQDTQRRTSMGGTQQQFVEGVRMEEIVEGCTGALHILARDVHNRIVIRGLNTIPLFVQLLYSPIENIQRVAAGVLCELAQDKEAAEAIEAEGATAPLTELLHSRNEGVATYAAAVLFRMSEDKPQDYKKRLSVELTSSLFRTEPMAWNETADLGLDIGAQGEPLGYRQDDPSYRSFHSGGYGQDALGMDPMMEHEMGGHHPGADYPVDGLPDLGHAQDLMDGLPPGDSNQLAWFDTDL
# assayRemarks: ELISA based protein-protein interaction assay, βCat-BCL9
# settings: Example 1
pIC50: −log10 of the molar value.
measure: pIC50

Solved entries:
>>> measvalue("O=C(Nc1ccc2oc(=O)ccc2c1)c1ccc(C(=O)Nc2ccc3oc(=O)ccc3c2)cc1")
5.52
>>> measvalue("CCN(CC)c1ccc(NC(=O)c2ccc(C(=O)Nc3ccc(N(CC)CC)cc3)nc2)cc1")
"< 4.00"

[ask] Form field: reported pIC50 of `COc1cc(C(=O)Nc2ccncc2)c(OC)cc1C(=O)Nc1ccncc1`
[reply] < 4.30

[ask] Same question for `O=C(Nc1ccc(-c2cnc(-c3ccc(NC(=O)C(F)(F)F)cc3)nc2)cc1)C(F)(F)F` please.
[reply] < 4.00

[ask] Now consider `COc1cc(-c2ccc(NC(=O)c3cc(-c4ccc(C)o4)nc4ccccc34)c(OC)c2)ccc1NC(=O)c1cc(-c2ccc(C)o2)nc2ccccc12` .
[reply] < 4.30

[ask] // query: `O=C(NCc1ccccc1)c1ccc(C(=O)NCc2ccccc2)nc1`
[reply] < 4.00

[ask] Repeat for the following compound: `COc1ccc(CCNC(=O)c2ccc(C(=O)NCCc3ccc(OC)c(Cl)c3)nc2)cc1Cl`
[reply] < 4.00

[ask] Subsequent entry: `COC(=O)c1ccc(NC(=O)c2ccc(C(=O)Nc3ccc(C(=O)OC)cc3Cl)nc2)c(Cl)c1`
[reply] < 4.30

[ask] Quick one: `O=C(NCc1ccc(Cl)cc1)c1ccc(C(=O)NCc2ccc(Cl)cc2)nc1`
[reply] < 5.00

[ask] Also `COc1ccccc1CCNC(=O)c1ccc(C(=O)NCCc2ccccc2OC)nc1` , if possible.
[reply] < 5.00

[ask] Ok, now `O=C(Nc1ccccc1)c1ccc(C(=O)Nc2ccccc2)nc1`
[reply] < 4.00

[ask] Next entry: `O=C(Nc1ccc(-c2cnc(-c3ccc(NC(=O)c4ccccc4Cl)cc3)nc2)cc1)c1ccccc1Cl`
[reply] < 5.00

[ask] Next entry: `CC(C)(C)C(=O)Nc1ccc(-c2cnc(-c3ccc(NC(=O)C(C)(C)C)cc3)nc2)cc1`
[reply] < 5.00

[ask] # repeat for `COc1ccc(NC(=O)c2ccc(C(=O)Nc3ccc(NC(C)=O)cc3)cn2)cc1`
[reply] 5.30

[ask] Another: `CC(C)NC(=O)c1ccc(C(=O)NC(C)C)nc1`
[reply] < 4.00

[ask] // query: `CC(=O)c1cccc(NC(=O)c2ccc(C(=O)Nc3cccc(C(C)=O)c3)nc2)c1`
[reply] < 5.00

[ask] Item: `Cc1cc(I)ccc1NC(=O)c1ccc(C(=O)Nc2ccc(I)cc2C)nc1`
[reply] < 5.00
